Molecular target: human CD3 expressed on cells (Jurkat cells; human T-cells of PBMC) (human, UniProt P09693 23-182; P20963 22-164)
Sequence (chain, as listed by the source, chain 1 of 4): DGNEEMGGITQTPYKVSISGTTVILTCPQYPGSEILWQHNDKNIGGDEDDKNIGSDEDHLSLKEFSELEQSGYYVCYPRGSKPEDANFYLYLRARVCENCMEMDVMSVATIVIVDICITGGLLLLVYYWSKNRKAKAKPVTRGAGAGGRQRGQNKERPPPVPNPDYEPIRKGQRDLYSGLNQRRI
Sequence (chain, as listed by the source, chain 2 of 4): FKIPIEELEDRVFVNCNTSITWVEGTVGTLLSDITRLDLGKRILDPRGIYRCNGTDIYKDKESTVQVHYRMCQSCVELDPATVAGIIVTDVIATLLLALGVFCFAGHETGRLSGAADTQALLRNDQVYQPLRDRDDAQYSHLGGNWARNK
Sequence (P09693 23-182, chain 3 of 4): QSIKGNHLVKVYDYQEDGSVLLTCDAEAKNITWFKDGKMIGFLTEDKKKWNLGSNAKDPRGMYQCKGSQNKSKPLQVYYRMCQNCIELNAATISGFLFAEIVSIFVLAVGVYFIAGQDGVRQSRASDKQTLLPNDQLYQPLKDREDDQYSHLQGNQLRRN
Sequence (P20963 22-164, chain 4 of 4): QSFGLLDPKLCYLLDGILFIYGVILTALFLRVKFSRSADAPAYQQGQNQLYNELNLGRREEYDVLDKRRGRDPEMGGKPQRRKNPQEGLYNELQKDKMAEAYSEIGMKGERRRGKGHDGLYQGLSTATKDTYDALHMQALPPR
Assay: cell-based or functional assay
ENDPOINT_LABEL: EC50 [M] hPBMC Proliferation (M)
I only need the number, in M, no unit after it.

Endpoint output: EC50 [M] hPBMC Proliferation of H1H5772S (antibody, human IgG1, V domains shown, H1H: human IgG1 Fc; also called H1H5772P) VH: QVQLVESGGGLVQPGRSLRLSCAASGFSFDDYAMHWVRQAPGQGLEWVSGISWNGGSRDYADSVKGRFTISRDNARNSLFLQMNSLFTEDTALYYCAKDKSGYGSYFYGMDVWGQGTTVTVSS VL: EIVLTQSPGILSLSPGDRATLSCRASQSIRNIYLAWYQQKPGQAPRLLIHGASTRATGIPDRFSGSGSGTDFTLTISRLEPEDFAVYYCQQRVSSPYTFGQGTKLEIK . Value?
4.42e-12

Endpoint output: EC50 [M] hPBMC Proliferation of H1H5758B (antibody, human IgG1, V domains shown, H1H: human IgG1 Fc) VH: EVQLVESGGGVVQPGRSLRLSCAASGFTFSSYGMHWVRQAPGKGLEWVTVILHDGSNRYYADSVKGRFTISRDNSKNTLYLQMNILRAEDTAVYYCTKGAMVRGVPYNHYYGMDVWGQGTTVTVSS VL: DIVMTQSPSSLSASVGDRVTITCRASQGIRNDLGWYQQKPGKAPKRLIYAASNLQSGVPSRFSGSGSGTEFTLTISSLQPEDFATYYCLQHNSYPYTFGQGTKLEIKR . Value?
2.13e-12

Endpoint output: EC50 [M] hPBMC Proliferation of H1H5792B (antibody, human IgG1, V domains shown, H1H: human IgG1 Fc) VH: QVQLVESGGGVVQPGRSLRLSCAASGFTFSSYGMHWVRQAPGKGLEWVSTISFDGSNKYYADSVKGRFTISRDNSKNTLYLQMNSLRPEDTAVYYCAKGGGTSGSYFYYGMDVWGQGTTVTVSS VL: AIQMTQSPSSLSASVGDRVTITCRASQRISSFLNWYQQKPGKAPKLLIYTASNLQNGVPSRFSGSGSGTDFTLTISSLQPEDFATYYCQQSYRTPLTFGGGTKLEIKR . Value?
6.47e-12

Endpoint output: EC50 [M] hPBMC Proliferation of H1H5781P (antibody, human IgG1, V domains shown, H1H: human IgG1 Fc) VH: EVQLVESGGGLVQPGRSLRLSCAASGFTFDDFTMHWVRQAPGKGLEWVSDISWNSGSIDYADSVKGRFTISRDNARNSLFLQMSSLRTEDTASYYCIKDKSGYGSYNYGLDVWGQGTTVTVSS VL: EIVLTQSPGTLSLSPGDRATLSCRASQSVSSIYLAWYQQKPGQAPRLLIHGASTRATGIPDRFSGSGSGTDFTLTISRLEPEDFALYYCHQRVSSPYTFGQGTKLEIK . Value?
6.08e-12

Endpoint output: EC50 [M] hPBMC Proliferation of H1H5780P (antibody, human IgG1, V domains shown, H1H: human IgG1 Fc) VH: EVQLVESGGGLVQPGRSLRLSCAASGFTFDDYAMHWVRQAPGKGLEWVSGISWNGGSKDYADSVKGRFTISRDNTRNSLSLQMNSLRIEDTALYYCAKDKSGYGSFYYGLDVWGQGTTVTVSS VL: EIVLTQSPGTLSLSPGDRATLSCRASQSIRSIYLAWYQQKPGQAPRLLIHGASTRATGIPDRFSGSGSGTDFTLTISRLEPEDFAVYYCQQRVSSPYTFGQGTKLEIK . Value?
3.44e-12
